Reference source: patent US4322420A

# Tested on: carrageenin-induced oedema of the right hind paw
# assay-name: Test for anti-inflammatory activity (carrageenin-induced paw oedema, oral administration)
# Assay type: in vivo, Male Wistar-Imamichi rats
# particulars: Rattus norvegicus, per os, rats, 0.05 ml of 1% w/v carrageenin 30 min after dosing, paw volume 3 hours after injection, Litchfield and Wilcoxon, read-out: ID50 Anti-inflammatory Activity
Each record is given fulfilled if its reported ED50 is strictly below 30 mg/kg. Records at or above 30 mg/kg are given not fulfilled.

* Clc1ccc2c(Nc3ccccc3)ncnc2c1 | fulfilled

I'd appreciate it if you could check whether Cc1cccc(Nc2ccccc2C(=O)O)c1C [Mefenamic acid, reference compound] has ED50 smaller than 30 mg/kg. not fulfilled

I'd appreciate it if you could check whether CN(c1ccccc1)c1ncnc2cc(C(F)(F)F)ccc12 has ED50 smaller than 30 mg/kg. fulfilled

I'd appreciate it if you could check whether FC(F)(F)c1ccc2c(Nc3ccccc3)ncnc2c1 has ED50 smaller than 30 mg/kg. fulfilled

I'd appreciate it if you could check whether CN(c1ccccc1)c1ncnc2cc(Cl)ccc12 has ED50 smaller than 30 mg/kg. not fulfilled

---

# System: bradykinin-induced nociceptive stimulus
# assay-name: Test for analgesic activity (bradykinin-induced nociceptive stimulus, oral administration)
# Assay type: in vivo, female Hartley guinea pigs
# particulars: Cavia porcellus, per os, guinea pigs, 0.5 μg bradykinin via carotid cannula before and 15, 30, 60, 90 and 120 min after dosing, Litchfield and Wilcoxon, read-out: ID50 Analgesic Activity
Listed next: entries and their corresponding ED50.
In your response, put the unit directly after the numeric value.

Please review the entries below; each comes with its answer.
• Cc1cccc(Nc2ccccc2C(=O)O)c1C [Mefenamic acid, reference compound] = 72 mg/kg
• CN(c1ccccc1)c1ncnc2cc(C(F)(F)F)ccc12 = 31 mg/kg
• Clc1ccc2c(Nc3ccccc3)ncnc2c1 = 25 mg/kg
• CN(c1ccccc1)c1ncnc2cc(Cl)ccc12 = 50 mg/kg

Here's the next entry for you.
Read the entry FC(F)(F)c1ccc2c(Nc3ccccc3)ncnc2c1 and write its reported ED50. 16.5 mg/kg
